System: LXR
Construct: EC50 (M); S/N; other: differentiate
procedure_summary: Cell-based LXR luciferase reporter assay, LXR agonists (Example 16a)
Set-up: species or system human
run_parameters: highest RLU on dose response curve / RLU in untreated wells, Table 5a
measured_attribute: S/N

- C[C@]1(C(=O)NC(=O)[C@@]2(C)CCC[C@]3(C)c4cc(NC(=O)COCNC(=O)CN)ccc4CC[C@@H]23)CCC[C@]2(C)c3cc(O)ccc3CC[C@@H]12: 11.5
- C[C@]1(C(=O)NC(=O)[C@@]2(C)CCC[C@]3(C)c4cc(NC(=O)CO)ccc4CC[C@@H]23)CCC[C@]2(C)c3cc(N)ccc3CC[C@@H]12: 10.8
- C[C@H](N)C(=O)Nc1ccc2c(c1)[C@@]1(C)CCC[C@](C)(C(=O)NC(=O)[C@@]3(C)CCC[C@]4(C)c5cc(N)ccc5CC[C@@H]34)[C@@H]1CC2: 11.9

====

Tested on: LXR
Construct: EC50 (M); S/N; other: differentiate
procedure_summary: Cell-based LXR luciferase reporter assay, LXR agonists (Example 16a)
Parameters: species or system human
run_parameters: highest RLU on dose response curve / RLU in untreated wells, Table 5a
measured_attribute: S/N

* C[C@]1(C(=O)NC(=O)[C@@]2(C)CCC[C@]3(C)c4cc(N)ccc4CC[C@@H]23)CCC[C@]2(C)c3cc(N)ccc3CC[C@@H]12 [P2] | 13.1
* C[C@]1(C(=O)NC(=O)[C@@]2(C)CCC[C@]3(C)c4cc(NC(=O)CO)ccc4CC[C@@H]23)CCC[C@]2(C)c3cc(O)ccc3CC[C@@H]12 [P17] | 12.5
* C[C@]1(C(=O)NC(=O)[C@@]2(C)CCC[C@]3(C)c4cc(N)c(O)cc4CC[C@@H]23)CCC[C@]2(C)c3cc(O)ccc3CC[C@@H]12 [P19] | 11.4
* C[C@]1(C(=O)NC(=O)[C@@]2(C)CCC[C@]3(C)c4cc(O)ccc4CC[C@@H]23)CCC[C@]2(C)c3cc(N)ccc3CC[C@@H]12 [P1] | 11.9
* CC(C)(C)OC(=O)Nc1ccc2c(c1)[C@@]1(C)CCC[C@](C)(C(=O)NC(=O)[C@@]3(C)CCC[C@]4(C)c5cc(O)ccc5CC[C@@H]34)[C@@H]1CC2 [P15] | 8.8
* C[C@H](NC(=O)[C@@H](N)CCC(=O)O)C(=O)Nc1ccc2c(c1)[C@@]1(C)CCC[C@](C)(C(=O)NC(=O)[C@@]3(C)CCC[C@]4(C)c5cc(O)ccc5CC[C@@H]34)[C@@H]1CC2 [P16] | 11.5
